# Tested on: A549
# methodNotes: Anti-proliferative activity, CellTiter-96 assay, A549
# Type: cell-based
# setupConditions: Homo sapiens, A549 cells, 72 hours incubation
measureName: IC50 (µM)

Check out these entries, answers already filled in.
c1cc(Nc2ncnc3ccc(-c4ccc5c(c4)OCO5)cc23)c2cn[nH]c2c1 : 14.2
COc1cc(-c2ccc3ncnc(Nc4cc(O)c(C)cc4F)c3c2)ccc1O : 1.6

I: COc1cc(-c2ccc3ncnc(Nc4ccccc4)c3c2)ccc1O
II: NC(=O)c1cccc(-c2ccc3nccc(Nc4cccc5[nH]ncc45)c3c2)c1
III: COc1ccc(-c2ccc3ncnc(Nc4cccc5[nH]ncc45)c3c2)cc1C=O
IV: COc1cc(-c2ccc3ncnc(Nc4cc(O)ccc4Cl)c3c2)ccc1O
QUERY: Sort ascending by IC50. Form entry: ranked labels (order as requested).
RESULT: IV, I, III, II
(IV: 0.6 µM, I: 1.3 µM, III: 12.7 µM, II: 23.5 µM)

---

# measurementTarget: C-Raf (Homo sapiens (Human))
# Sequence (P04049 whole entry): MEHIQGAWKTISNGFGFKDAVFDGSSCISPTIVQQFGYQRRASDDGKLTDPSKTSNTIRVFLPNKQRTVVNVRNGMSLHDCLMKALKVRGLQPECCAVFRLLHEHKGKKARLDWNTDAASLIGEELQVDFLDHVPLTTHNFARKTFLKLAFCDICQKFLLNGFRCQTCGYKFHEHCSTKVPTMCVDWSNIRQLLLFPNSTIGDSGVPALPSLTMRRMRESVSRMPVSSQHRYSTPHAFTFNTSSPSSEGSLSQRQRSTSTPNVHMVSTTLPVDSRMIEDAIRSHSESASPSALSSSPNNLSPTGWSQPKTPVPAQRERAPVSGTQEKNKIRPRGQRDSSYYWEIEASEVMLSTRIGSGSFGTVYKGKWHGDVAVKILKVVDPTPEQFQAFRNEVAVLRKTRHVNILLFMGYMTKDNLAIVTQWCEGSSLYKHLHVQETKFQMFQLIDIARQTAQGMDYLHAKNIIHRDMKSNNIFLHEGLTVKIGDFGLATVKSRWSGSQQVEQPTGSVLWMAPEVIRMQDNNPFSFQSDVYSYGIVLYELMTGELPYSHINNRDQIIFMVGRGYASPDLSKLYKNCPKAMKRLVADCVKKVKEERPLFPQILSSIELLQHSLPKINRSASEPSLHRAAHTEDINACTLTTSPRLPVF
# methodNotes: Raf kinase assay (C-Raf), [33P] incorporation into MEK1(K97R)
# Type: biochemical
measureName: IC50 (nM)

COc1cc(-c2ccc3ncnc(Nc4ccc5[nH]nnc5c4)c3c2)ccc1O : 973
COc1cc(-c2ccc3ncnc(Nc4c(F)ccc5[nH]ncc45)c3c2)ccc1O : 1130
COc1ccc(-c2ccc3nccc(Nc4cccc5[nH]ncc45)c3c2)cc1Cl : 735
Clc1ccc(-c2ccc3ncnc(Nc4cccc5[nH]ncc45)c3c2)cc1 : 919
COc1cc(-c2ccc3ncnc(Nc4ccc5cn[nH]c5c4)c3c2)ccc1O : 3280
COc1cc(-c2ccc3ncnc(Nc4cccc(NS(C)(=O)=O)c4)c3c2)ccc1O : 1410

I: COc1cc(-c2ccc3ncnc(Nc4ccc(S(N)(=O)=O)cc4)c3c2)ccc1O
II: COc1ccc(-c2ccc3ncnc(Nc4cccc5[nH]ncc45)c3c2)cc1C=O
III: COc1cc(-c2ccc3ncnc(Nc4ccc(C)c(O)c4)c3c2)ccc1O
IV: COc1cc(-c2ccc3ncnc(Nc4ccccc4O)c3c2)ccc1O
V: COc1cc(-c2ccc3nccc(Nc4cc(NS(C)(=O)=O)ccc4F)c3c2)ccc1O
QUERY: Sort ascending by IC50. Form entry: ranked labels (order as requested).
RESULT: II, III, I, IV, V
(II: 338 nM, III: 1060 nM, I: 1960 nM, IV: 3090 nM, V: 12800 nM)

---

# Test system: COLO205
# methodNotes: Anti-proliferative activity, CellTiter-96 assay, COLO205
# Type: cell-based
# setupConditions: Homo sapiens, COLO 205, COLO205 cells, 72 hours incubation
measureName: IC50 (µM)

1: COc1cc(-c2ccc3ncnc(Nc4cccc5[nH]ncc45)c3c2)ccc1O
2: COc1cc(-c2ccc3ncnc(Nc4ccc(F)c(Cl)c4)c3c2)ccc1O
QUERY: // compare measured IC50 between 1 and 2 ; output the lower one Kindly give the label for the entry you pick.
RESULT: 1

---

# measurementTarget: B-Raf (Homo sapiens (Human))
# Sequence (P15056 whole entry): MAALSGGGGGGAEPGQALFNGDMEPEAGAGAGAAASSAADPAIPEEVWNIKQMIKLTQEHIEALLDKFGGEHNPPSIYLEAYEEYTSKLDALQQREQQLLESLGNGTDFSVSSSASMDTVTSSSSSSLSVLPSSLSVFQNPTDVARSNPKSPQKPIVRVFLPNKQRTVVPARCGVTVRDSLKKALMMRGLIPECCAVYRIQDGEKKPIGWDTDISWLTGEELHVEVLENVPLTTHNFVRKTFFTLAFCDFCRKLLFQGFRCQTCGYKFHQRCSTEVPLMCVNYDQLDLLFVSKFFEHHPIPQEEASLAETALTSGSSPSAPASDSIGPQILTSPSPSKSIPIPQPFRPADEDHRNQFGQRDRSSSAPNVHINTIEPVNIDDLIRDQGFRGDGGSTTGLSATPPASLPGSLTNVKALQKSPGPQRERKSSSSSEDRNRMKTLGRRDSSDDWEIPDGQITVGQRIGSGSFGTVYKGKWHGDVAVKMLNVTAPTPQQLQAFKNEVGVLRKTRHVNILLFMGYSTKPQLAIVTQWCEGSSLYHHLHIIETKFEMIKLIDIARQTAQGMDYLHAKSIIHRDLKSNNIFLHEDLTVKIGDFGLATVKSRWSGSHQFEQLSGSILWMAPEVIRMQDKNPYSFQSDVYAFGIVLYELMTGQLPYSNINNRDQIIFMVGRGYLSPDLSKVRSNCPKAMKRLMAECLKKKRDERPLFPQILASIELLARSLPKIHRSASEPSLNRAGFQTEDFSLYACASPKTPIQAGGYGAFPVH
# methodNotes: Raf kinase assay (B-Raf), [33P] incorporation into MEK1(K97R)
# Assay type: biochemical
measureName: IC50 (nM)

COc1cc(-c2ccc3ncnc(Nc4cccc(NC(=O)C(F)(F)F)c4)c3c2)ccc1O [Compound 45] : 382
COc1cc(-c2ccc3ncnc(Nc4cccc5[nH]nc(Cl)c45)c3c2)ccc1O [Compound 126] : 142

A: COc1cccc(-c2ccc3ncnc(Nc4cccc5[nH]ncc45)c3c2)c1 [Compound 144]
B: COc1cccc(Nc2ncnc3ccc(-c4ccc(O)c(OC)c4)cc23)c1 [Compound 22]
C: COc1ccc(-c2ccc3ncnc(Oc4cccc(O)c4)c3c2)cc1 [Compound 152]
QUERY: List these items ordered by IC50, big to small. Form entry: ranked labels (order as requested).
RESULT: B, A, C
(B: 719 nM, A: 309 nM, C: 131 nM)
